B1: glmS ribozyme (parent)
chain: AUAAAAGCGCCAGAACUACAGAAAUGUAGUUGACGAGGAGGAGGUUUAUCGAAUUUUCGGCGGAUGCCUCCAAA

Variants of: B1
Experiment: kcat; higher = faster cleavage; RNA array
Settings: with glucosamine-6-phosphate
Variants at the floor of the assay were thinned out.
Assay metric: kcat (s⁻¹)

[
  {
    "Mutation": "A33C U54G",
    "Reading qualifier": "=",
    "Val": 0.00057
  },
  {
    "Mutation": "A15C U65C",
    "Reading qualifier": "=",
    "Val": "7.01e-05"
  },
  {
    "Mutation": "C67A C71G",
    "Reading qualifier": "=",
    "Val": "7.2e-05"
  },
  {
    "Mutation": "A12C A64C",
    "Reading qualifier": "=",
    "Val": 0.000233
  },
  {
    "Mutation": "A14G G40C",
    "Reading qualifier": "=",
    "Val": 0.0146
  },
  {
    "Mutation": "G32U",
    "Reading qualifier": "=",
    "Val": 0.00158
  },
  {
    "Mutation": "A6C G59A",
    "Reading qualifier": "<",
    "Val": "1e-05"
  },
  {
    "Mutation": "G13U A42G U45A",
    "Reading qualifier": "=",
    "Val": 0.00154
  },
  {
    "Mutation": "A15C U30A A48U",
    "Reading qualifier": "=",
    "Val": "6.89e-05"
  },
  {
    "Mutation": "A33C U55C",
    "Reading qualifier": "<",
    "Val": "1e-05"
  },
  {
    "Mutation": "G29U G38C C58G C68A C71A",
    "Reading qualifier": "=",
    "Val": "5.03e-05"
  },
  {
    "Mutation": "A12U G38A",
    "Reading qualifier": "<",
    "Val": "1e-05"
  },
  {
    "Mutation": "A39C U57G",
    "Reading qualifier": "<",
    "Val": "1e-05"
  },
  {
    "Mutation": "C16A U46G C70G",
    "Reading qualifier": "=",
    "Val": "2.12e-05"
  },
  {
    "Mutation": "A15C",
    "Reading qualifier": "=",
    "Val": 0.011
  },
  {
    "Mutation": "U56G G60A",
    "Reading qualifier": "=",
    "Val": "2.37e-05"
  },
  {
    "Mutation": "C11U C67A",
    "Reading qualifier": "=",
    "Val": 0.000277
  },
  {
    "Mutation": "A12G U56C",
    "Reading qualifier": "=",
    "Val": 0.000482
  },
  {
    "Mutation": "G29A A53G",
    "Reading qualifier": "=",
    "Val": 0.00571
  },
  {
    "Mutation": "A15G U56C",
    "Reading qualifier": "=",
    "Val": 0.0034
  },
  {
    "Mutation": "U31A G41U",
    "Reading qualifier": "=",
    "Val": 0.000384
  },
  {
    "Mutation": "G63U C68A",
    "Reading qualifier": "=",
    "Val": "1.22e-05"
  },
  {
    "Mutation": "A53G A64U",
    "Reading qualifier": "=",
    "Val": 0.000128
  },
  {
    "Mutation": "G63A U69G",
    "Reading qualifier": "=",
    "Val": "6.54e-05"
  },
  {
    "Mutation": "U30A U54C",
    "Reading qualifier": "=",
    "Val": 0.00409
  },
  {
    "Mutation": "C16A U56A",
    "Reading qualifier": "=",
    "Val": 0.0016
  },
  {
    "Mutation": "U31C G40U",
    "Reading qualifier": "=",
    "Val": 0.000615
  },
  {
    "Mutation": "A15C C67G",
    "Reading qualifier": "=",
    "Val": 0.000131
  },
  {
    "Mutation": "A52U G59A C68G",
    "Reading qualifier": "<",
    "Val": "1e-05"
  },
  {
    "Mutation": "G37U A64C",
    "Reading qualifier": "<",
    "Val": "1e-05"
  },
  {
    "Mutation": "G35A U49C",
    "Reading qualifier": "<",
    "Val": "1e-05"
  },
  {
    "Mutation": "A6C G29A",
    "Reading qualifier": "<",
    "Val": "1e-05"
  },
  {
    "Mutation": "C10G G32C",
    "Reading qualifier": "<",
    "Val": "1e-05"
  },
  {
    "Mutation": "G37A U46A",
    "Reading qualifier": "=",
    "Val": 0.000136
  },
  {
    "Mutation": "U57A C58G",
    "Reading qualifier": "=",
    "Val": "7.04e-05"
  },
  {
    "Mutation": "G29A U46C",
    "Reading qualifier": "=",
    "Val": 0.00025
  },
  {
    "Mutation": "G13C C67A",
    "Reading qualifier": "=",
    "Val": "5.87e-05"
  },
  {
    "Mutation": "C16U U57C",
    "Reading qualifier": "=",
    "Val": 0.000329
  },
  {
    "Mutation": "A42U G43U C61A",
    "Reading qualifier": "=",
    "Val": "2.03e-05"
  },
  {
    "Mutation": "G44A U54A",
    "Reading qualifier": "=",
    "Val": 0.000692
  },
  {
    "Mutation": "A52C C68A",
    "Reading qualifier": "=",
    "Val": "2.96e-05"
  },
  {
    "Mutation": "G37U C50U C70U",
    "Reading qualifier": "=",
    "Val": "3.99e-05"
  },
  {
    "Mutation": "U55G G60U G63A G66C",
    "Reading qualifier": "=",
    "Val": "1.16e-05"
  },
  {
    "Mutation": "U56A G66C",
    "Reading qualifier": "=",
    "Val": 0.000237
  },
  {
    "Mutation": "A14G C16G",
    "Reading qualifier": "=",
    "Val": 0.0069
  },
  {
    "Mutation": "C61A C70G",
    "Reading qualifier": "=",
    "Val": "1.68e-05"
  }
]

Each recorded value in this set is attributed to the supplement of paper PMC7125110.
